Data provenance is PubChem BioAssay AID2315.

# PROCEDURE DETAILS: A qHTS for Small Molecule Inhibitors of Shiga Toxin; further: 0% is about no effect
# SETUP CONDITIONS: Vero cells, Shiga toxin protein synthesis inhibition reporter; at 38.7 µM, stronger effect = higher value
Screen size: about 290,000 compounds; about 27,000 (9.3%) were called active. For the sample, actives were picked, then their nearest neighbours and some compounds at random.
Form field: inhibition (one value per entry).
Could you give me the number in %? Just the number is fine.

Solved entries (count: 8):
COMPOUND	inhibition (%)
CC(C)[C@H](NC(=O)OCc1ccccc1)C(=O)OCc1ccccc1	25.1
Cc1cc(C)c(NC(=O)CN2CCCCCC2)c(C)c1	83.4
COCCn1c(SCC(=O)N2CCCCCC2)nc2c(c1=O)SCC2	-16.9
CC(C)CC(=O)NC(=S)NCc1ccccc1	-1.98
Cc1csc(NC(=O)CN2CCCCCC2)n1	-8.35
CNS(=O)(=O)c1cccc(C(=O)NCC2CCCCC2)c1	10.6
CN(C(=O)c1cccc(OC2CCN(S(=O)(=O)N(C)C)CC2)c1)C1CCOC1 (configuration not stated)	21.6
CC(C)CC(=O)N/C(N)=N/c1nc2ccccc2s1	61.6

Input: For the compound COc1ccc(CNC(=O)CN(C(=O)c2csnn2)c2cnc3ccccc3c2)cc1 , what inhibition is on record?
Output: -8.3

Input: What about COc1cc(Cl)c(C)cc1NC(=O)CN1CCCCCC1 ?
Output: 14.2

Input: Item: Cc1ccccc1-c1nc(CS(=O)(=O)CC(=O)NC(C)c2ccccc2)c(C)o1 (configuration not stated)
Output: -2.18

Input: Cool, now CCC(=O)NCCc1nc2ccccc2n1CC
Output: -5.67

====

# inhibition values compiled below
# PROCEDURE DETAILS: A qHTS for Small Molecule Inhibitors of Shiga Toxin; further: 0% is about no effect
# SETUP CONDITIONS: Vero cells, Shiga toxin protein synthesis inhibition reporter; at 38.7 µM, stronger effect = higher value
About 27,000 (9.3%) of roughly 290,000 compounds were called active. This is one part of a sample in which actives are shown more often than they occur.

COMPOUND	inhibition
CCc1ccc(NC(=O)N2CCN(c3ccccc3)CC2)cc1	20.1% (inactive)
COc1cccc(C2CC(c3ccccc3)=NN2S(=O)(=O)c2ccccc2)c1OC (stereo unspecified)	-3.39% (inactive)
CC(=O)Nc1cccc([N+](=O)[O-])c1	17.7% (inactive)

Input: What does the data say about its inhibition? Entry: COc1ccc(C(=O)Nc2nc(-c3ccc(OC)cc3)c(-c3ccc([N+](=O)[O-])cc3)s2)cc1
Output: -3.81% (inactive)

Input: Next compound up: CC(C)(C)c1ccc(CN2C(=O)c3ccccc3S2(=O)=O)cc1
Output: 32.5% (inactive)

Input: What do we get for O=C(C(=O)N1CCc2ccccc2C1)N1CCc2ccccc2C1 ?
Output: 8.23% (inactive)

====

# PROCEDURE DETAILS: A qHTS for Small Molecule Inhibitors of Shiga Toxin; further: 0% is about no effect
# SETUP CONDITIONS: Vero cells, Shiga toxin protein synthesis inhibition reporter; at 38.7 µM, stronger effect = higher value
Out of some 290,000 compounds screened, about 27,000 (9.3%) were called active. Shown is part of a subset that was picked to be rich in actives.
MEASURED QUANTITY: inhibition

Field: example entries. Status: answers known.
MOLECULE	inhibition
COc1cc(NC(=O)CCNC(=O)Cn2ccc3ccccc3c2=O)cc(OC)c1OC	11.7% (inactive)
COc1ccc(C2NC(=S)NC3=C2CCc2ccccc23)cc1OC (stereo unspecified)	-17% (inactive)
O=C(CSCc1ccc(Cl)cc1)N1CCN(Cc2ccc3c(c2)OCO3)CC1	1.49% (inactive)
O=C1c2ccccc2C(=O)c2c1cccc2N1CCN(Cc2ccccc2)CC1	47.7% (inactive)
Cc1ccccc1NC(=O)NCC1CCN(Cc2cccc(Cl)c2)CC1	-1.26% (inactive)

Input: I would be grateful if you could share the reported inhibition for Cc1cccc(-c2nnc(SCC(=O)O)n2Cc2ccccc2)c1 .
Output: -7.35% (inactive)

Input: Param item: CCO[C@@H]1OC(C(=O)NCc2nc3ccccc3[nH]2)=C[C@H](C2CCCCC2)[C@H]1CCCO
Output: -8.66% (inactive)

Input: Now give it for CC(=O)c1ccc(NC(=O)Cn2c(=O)oc3ccccc32)cc1 too.
Output: -3.29% (inactive)

Input: What about this molecule? O=C(COC(=O)c1ccc(Oc2ccccc2)cc1)Nc1nnc(-c2ccccc2)o1
Output: 6.93% (inactive)

Input: Input CCOC(=O)C1=C(c2ccccc2)NC(=S)NC1c1ccc(Cl)cc1 (stereo unspecified)
Output: -13.4% (inactive)

====

# PROCEDURE DETAILS: A qHTS for Small Molecule Inhibitors of Shiga Toxin; further: 0% is about no effect
# SETUP CONDITIONS: Vero cells, Shiga toxin protein synthesis inhibition reporter; at 38.7 µM, stronger effect = higher value
In all, about 290,000 compounds went through this assay and about 27,000 (9.3%) were called active. The full list was thinned out, with actives kept by preference.
MEASURED QUANTITY: inhibition (%)
Kindly provide the numeric value in % only, without the unit symbol.

COMPOUND	inhibition (%)
C=CCN(C(=O)Cn1ncc2c1-c1cc(C)ccc1OC2)c1ccccc1	-10.9
CCN(C(=O)CSc1nnc(-c2ccncc2)o1)c1ccccc1	-4.1
COc1ccc(C(=O)Nc2ccc3c(c2)OCO3)cc1OC	99

Input: Which inhibition value belongs to Cc1nn(CC(=O)Nc2ccc3c(c2)nc(CN2CCCCC2)n3C)c(=O)c2ccccc12 ?
Output: -8.7

Input: Now give it for Cn1ncc(Br)c1C(=O)NCc1cccs1 too.
Output: 20.7

Input: Try the compound C=CCN(C(=O)Nc1ccc2oc(C)nc2c1)c1ccccc1
Output: 117

Input: Follow-up item: Cc1nc2cc(NC(=O)Nc3cccc(F)c3)ccc2n1C
Output: 27.6

====

# PROCEDURE DETAILS: A qHTS for Small Molecule Inhibitors of Shiga Toxin; further: 0% is about no effect
# SETUP CONDITIONS: Vero cells, Shiga toxin protein synthesis inhibition reporter; at 38.7 µM, stronger effect = higher value
In all, about 290,000 compounds went through this assay and about 27,000 (9.3%) were called active. Only a selection was taken, and actives are over-represented in it overall.
compounds and their reported inhibition
Give just the number in %; leave the unit off.

Solved cases below.
COMPOUND	READOUT UNIT	inhibition
CS(=O)(=O)n1nc(-c2ccccc2)nc1NCc1ccco1	%	7.12
C=CCOC(=O)C(=C)C	%	-5.85
COC(=O)c1cc(CNC(=O)CC(C)c2ccccc2)ccc1OC (configuration not stated)	%	-4.17
CCS(=O)(=O)n1nc(-c2ccccc2)nc1SCc1ccccc1	%	115
CO/N=C/CC(=O)c1ccc(OC)cc1	%	91.1

Input: Entry COc1ccc(C(=O)CC2C(=O)N(C)C(=O)N(C)C2=O)cc1 : reported inhibition = ?
Output: 13.8

Input: Now the same for CCCCNC(=O)CCn1nc(-c2ccc(Cl)cc2)ccc1=O
Output: -6.39

====

# PROCEDURE DETAILS: A qHTS for Small Molecule Inhibitors of Shiga Toxin; further: 0% is about no effect
# SETUP CONDITIONS: Vero cells, Shiga toxin protein synthesis inhibition reporter; at 38.7 µM
Hit rate of the full screen: of about 290,000 compounds, about 27,000 (9.3%) were called active. No stated cut-off is given here; in the data, active means inhibition mostly above about 28% (no sharp cut-off); inactive means mostly below about 43%. The entries come from a sample that favours actives as a whole.
# output must be one of active, inactive

Consider the following illustrative entries.
COMPOUND	ASSIGNED CLASS
O=C(NCC1CCCO1)c1cc(-c2ccccc2)nc2ccccc12 (stereo not given)	inactive
COc1ccc(OC)c(/C=C/C(=O)OCC(=O)Nc2ccc3c(c2)OCCO3)c1	inactive
COc1cccc(NC(=S)NCc2ccco2)c1	inactive
Nc1cccc(-c2cc(-c3ccccc3)nc(-c3cccc(N)c3)n2)c1	inactive
O=C(CSCc1c(F)cccc1Cl)NCC1CCCO1 (stereo not given)	inactive

Input: # outcome recorded in this test, key = O=C(/C=C/c1ccc(Cl)cc1)Nc1ccc(S(=O)(=O)Nc2ncccn2)cc1
Output: inactive

Input: Do the same for CCOC(=O)CSc1nnc(NC(=O)C2CC(=O)N(c3ccc(F)cc3)C2)s1 (stereo not given) please
Output: inactive

Input: Consider next the compound COc1cccc(-n2c(=S)sc3c(=O)n(-c4ccccc4C)c(SCC(=O)O)nc32)c1 in the same way.
Output: inactive

Input: # repeat for O=C(NNS(=O)(=O)c1ccc([N+](=O)[O-])cc1)C1CCCCC1
Output: inactive

Input: Proceed to CC(C)CNS(=O)(=O)c1ccc(C(=O)Nc2ccc3c(c2)OCO3)cc1
Output: inactive

Input: What would you report for CCOC(=O)c1c(NC(=S)NC)sc2c1CCCC2 ?
Output: inactive

Input: Would you kindly repeat that for Cc1cc(C)n(C(=O)CCNC(=O)c2ccccc2Cl)n1 ?
Output: inactive

Input: Check CC(NC(=O)Nc1ccc2c(c1)OCO2)c1ccncc1 (stereo not given) too.
Output: inactive

Input: Now the compound CCC(=O)Nc1ccc2nn(-c3ccc(F)cc3)nc2c1
Output: active

Input: Now give it for CCn1cc(CN2CCN(CC(C)(C)C)C(CCO)C2)c2ccccc21 (stereo not given) too.
Output: inactive

Input: Thanks! And CCCOC(=O)Nc1sc2c(c1C(=O)OCC)CCC2 ?
Output: inactive

Input: For CCOc1ccc(N(CC(=O)NCCOc2ccccc2OC)S(=O)(=O)c2ccccc2)cc1 then?
Output: inactive

Input: Please give the result for Cc1cccc(NC(=O)Nc2ccc3c(c2)OCO3)n1 too.
Output: active

Input: For NC(=O)c1cc(-c2cccnc2)nc2ccc(Br)cc12 then?
Output: inactive

Input: Field entry: Cc1cccc(N2CCN(C(=O)COCc3cc(-c4ccc5c(c4)OCO5)on3)CC2)c1C
Output: inactive

Input: Entry to check: Cc1cccc(NC(=O)/C=C/c2ccc3c(c2)OCO3)n1
Output: active
